- Tested Target: Glycogen synthase kinase-3 beta (Homo sapiens)
- Sequence (P49841 whole entry): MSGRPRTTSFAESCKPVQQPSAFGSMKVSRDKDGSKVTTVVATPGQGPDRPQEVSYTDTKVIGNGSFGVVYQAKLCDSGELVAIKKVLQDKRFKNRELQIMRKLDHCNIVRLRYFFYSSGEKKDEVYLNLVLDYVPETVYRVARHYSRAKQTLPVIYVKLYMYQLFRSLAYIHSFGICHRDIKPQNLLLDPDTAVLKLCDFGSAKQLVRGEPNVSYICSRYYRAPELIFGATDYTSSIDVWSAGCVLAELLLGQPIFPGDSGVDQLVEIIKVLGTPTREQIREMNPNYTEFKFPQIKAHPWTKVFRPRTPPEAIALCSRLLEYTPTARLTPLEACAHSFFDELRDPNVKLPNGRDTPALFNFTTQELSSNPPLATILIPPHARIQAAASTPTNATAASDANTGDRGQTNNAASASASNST
- Procedure Summary: Inhibition of GSK3-beta in human RD cells
- Format: cell-based
pEC50: −log10 of the molar value.
pEC50 of 7 or higher: 1.0. Under 7: 0.0.

Structure String: CCN1CCN(C(=O)c2ccc(CCNC(=O)c3ccc(O)c4nc(-c5cccs5)[nH]c34)cc2)CC1
Assigned Class: 0.0

Structure String: CS(=O)(=O)Nc1ccc(CCNC(=O)c2ccc(O)c3nc(C4CC4)[nH]c23)cc1
Assigned Class: 0.0

Structure String: O=C(NCCCn1ccnc1)c1ccc(O)c2[nH]c(-c3ccc(Cl)cc3Cl)nc12
Assigned Class: 0.0

Structure String: CS(=O)(=O)Nc1ccc(CCNC(=O)c2ccc(O)c3[nH]c(C4CCCC4)nc23)cc1
Assigned Class: 0.0

Structure String: O=C(NCCCn1cnc(Cl)c1Cl)c1ccc(O)c2[nH]c(-c3cccs3)nc12
Assigned Class: 1.0

Structure String: O=C(NCCCn1ccnc1)c1ccc(O)c2nc(-c3ccc(F)c(Cl)c3)[nH]c12
Assigned Class: 0.0

###

- Tested Target: Cyclin-dependent kinase 1 (Homo sapiens) (UniProt P06493)
- Sequence (P06493 whole entry, looked up): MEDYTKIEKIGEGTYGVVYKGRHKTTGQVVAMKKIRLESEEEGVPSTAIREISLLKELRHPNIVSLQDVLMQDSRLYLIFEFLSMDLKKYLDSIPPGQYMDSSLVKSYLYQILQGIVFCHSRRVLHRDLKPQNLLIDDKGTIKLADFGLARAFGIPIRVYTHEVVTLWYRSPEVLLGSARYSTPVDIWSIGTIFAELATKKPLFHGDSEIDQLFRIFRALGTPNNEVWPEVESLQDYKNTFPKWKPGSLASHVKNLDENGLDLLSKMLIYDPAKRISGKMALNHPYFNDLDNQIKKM
- Procedure Summary: Inhibition of CDK1 assessed as residual activity at 5 uM
The entries below come with measured Activity values attached.

Structure String: O=C(NCCCn1ccnc1)c1ccc(O)c2[nH]c(-c3ccc(F)c(Cl)c3)nc12
Activity [%]: 71.3
//
Structure String: CCN1CCN(C(=O)c2ccc(CCNC(=O)c3ccc(O)c4[nH]c(-c5cccs5)nc34)cc2)CC1
Activity [%]: 70.4
//
Structure String: O=C(NCCCn1cnc(Cl)c1Cl)c1ccc(O)c2[nH]c(-c3ccco3)nc12
Activity [%]: 65.2
//
Structure String: O=C(O)COc1cccc(CCCNC(=O)c2ccc(O)c3[nH]c(-c4ccc(Cl)cc4)nc23)c1
Activity [%]: 90.9

###

- Tested Target: Glycogen synthase kinase-3 beta (Homo sapiens)
- Procedure Summary: Inhibition of GSK3-beta in human RD cells
- Type: cell-based
Measured Metric: EC50 (µM)

Structure String: Cc1nc2c(O)ccc(C(=O)NCCc3ccc(NS(C)(=O)=O)cc3)c2[nH]1
Tested Target: Glycogen synthase kinase-3 beta (Homo sapiens)
Unit Abbrev: µM
Value Observed: 21
//
Structure String: O=C(NCCCn1cnc(Cl)c1Cl)c1ccc(O)c2nc(-c3ccco3)[nH]c12
Tested Target: Glycogen synthase kinase-3 beta (Homo sapiens)
Unit Abbrev: µM
Value Observed: 0.05
//
Structure String: CS(=O)(=O)Nc1ccc(CCNC(=O)c2ccc(O)c3[nH]c(Cc4ccccc4)nc23)cc1
Tested Target: Glycogen synthase kinase-3 beta (Homo sapiens)
Unit Abbrev: µM
Value Observed: 3.9
//
Structure String: CS(=O)(=O)Nc1ccc(CCNC(=O)c2ccc(O)c3[nH]c(-c4ccc(F)cc4Cl)nc23)cc1
Tested Target: Glycogen synthase kinase-3 beta (Homo sapiens)
Unit Abbrev: µM
Value Observed: 0.23
//
Structure String: CS(=O)(=O)Nc1ccc(CCNC(=O)c2ccc(O)c3nc(-c4ccncc4)[nH]c23)cc1
Tested Target: Glycogen synthase kinase-3 beta (Homo sapiens)
Unit Abbrev: µM
Value Observed: 25

###

The next entries give measured IC50 for UniProt:P49841.

Structure String: CS(=O)(=O)Nc1ccc(CCNC(=O)c2ccc(O)c3[nH]c(-c4ccc(Cl)cc4)nc23)cc1
IC50: 7 nM
//
Structure String: O=C(NCCCn1cnc(Cl)c1Cl)c1ccc(O)c2nc(-c3ccc(Cl)cc3Cl)[nH]c12
IC50: 6 nM
//
Structure String: O=C(NCCCn1cnc(Cl)c1Cl)c1ccc(O)c2[nH]c(-c3cccs3)nc12
IC50: 8 nM
//
Structure String: CS(=O)(=O)Nc1ccc(CCNC(=O)c2ccc(O)c3nc(-c4ccncc4)[nH]c23)cc1
IC50: 110 nM
//
Structure String: O=C(NCCCn1cnc(Cl)c1Cl)c1ccc(O)c2nc(-c3ccco3)[nH]c12
IC50: 10 nM

Where do the numbers come from? From ChEMBL document CHEMBL1955751.
